assay: Solubility tests of mono- and di-hydrochloride in bio-relevant media by HPLC; assay type: physicochemical; conditions: 37 °C, pH 6.62, fassif, thermodynamic from solid

- compound: "Cc1ccncc1-c1ccc2nc(NC(=O)[C@@H]3C[C@@H]3F)sc2c1.Cl [Mono-hydrochloride]"
  solubility at 17 h / µg/mL: 7840

---

assay: Solubility test of free base in solvents; assay type: physicochemical; conditions: organic solvent or mixture, thermodynamic from solid; Heptane, 50° C.; read-out: Solubility
property_name: solubility

- compound: "Cc1ccncc1-c1ccc2nc(NC(=O)[C@@H]3C[C@@H]3F)sc2c1 [free base]"
  reported: "< 5000 µg/mL"

---

assay: Solubility test of free base in solvents; assay type: physicochemical; details: organic solvent or mixture, thermodynamic from solid; Methyl ethyl ketone (MEK), 25° C.; read-out: Solubility
property_name: solubility

- molecule: "Cc1ccncc1-c1ccc2nc(NC(=O)[C@@H]3C[C@@H]3F)sc2c1 [free base]"
  reported: "< 5000 µg/mL"

---

test: Solubility test of free base in solvents; format: physicochemical; conditions: organic solvent or mixture, thermodynamic from solid; N,N-Dimethylformamide (DMF), 50° C.; read-out: Solubility

- molecule: "Cc1ccncc1-c1ccc2nc(NC(=O)[C@@H]3C[C@@H]3F)sc2c1 [free base]"
  solubility: "> 100 mg/mL"

---

assay: Solubility test of free base in solvents; format: physicochemical; settings: aqueous with cosolvent or surfactant or cyclodextrin, thermodynamic from solid; EtOH/H2O (1/1, v/v), 25° C.; read-out: Solubility
property_name: solubility

- molecule: "Cc1ccncc1-c1ccc2nc(NC(=O)[C@@H]3C[C@@H]3F)sc2c1 [free base]"
  reported: "< 5000 µg/mL"

---

assay: Solubility test of free base in solvents; assay type: physicochemical; conditions: organic solvent or mixture, thermodynamic from solid; Acetone, 50° C.; read-out: Solubility

- compound: "Cc1ccncc1-c1ccc2nc(NC(=O)[C@@H]3C[C@@H]3F)sc2c1 [free base]"
  solubility: "< 5000 µg/mL"

---

experiment: Solubility test of free base in bio-relevant media and buffers; assay type: physicochemical; details: aqueous buffer, thermodynamic from solid; pH 2.0 buffer, initial pH 1.98, 37° C., 24 hrs

- compound: "Cc1ccncc1-c1ccc2nc(NC(=O)[C@@H]3C[C@@H]3F)sc2c1 [free base]"
  unit_text: "µg/mL"
  solubility at 24 h: 2060

---

assay: Solubility test of free base in solvents; assay type: physicochemical; conditions: organic solvent or mixture, thermodynamic from solid; Ethyl acetate (EtOAc), 50° C.; read-out: Solubility

- compound: "Cc1ccncc1-c1ccc2nc(NC(=O)[C@@H]3C[C@@H]3F)sc2c1 [free base]"
  solubility: "< 5 mg/mL"

---

assay: Solubility test of free base in solvents; type: physicochemical; settings: organic solvent or mixture, thermodynamic from solid; 1,4-dioxane, 25° C.; read-out: Solubility

- molecule: "Cc1ccncc1-c1ccc2nc(NC(=O)[C@@H]3C[C@@H]3F)sc2c1 [free base]"
  solubility: "< 5000 µg/mL"

---

test: Solubility test of free base in solvents; type: physicochemical; settings: organic solvent or mixture, thermodynamic from solid; Dichloromethane (DCM), 25° C.; read-out: Solubility

- molecule: "Cc1ccncc1-c1ccc2nc(NC(=O)[C@@H]3C[C@@H]3F)sc2c1 [free base]"
  solubility: "< 5000 µg/mL"

---

assay: Solubility test of free base in solvents; type: physicochemical; settings: organic solvent or mixture, thermodynamic from solid; Dimethylsulfoxide (DMSO), 25° C.; read-out: Solubility

- compound: "Cc1ccncc1-c1ccc2nc(NC(=O)[C@@H]3C[C@@H]3F)sc2c1 [free base]"
  solubility: "> 100 mg/mL"

---

assay: Solubility test of free base in solvents; type: physicochemical; conditions: organic solvent or mixture, thermodynamic from solid; Ethyl acetate (EtOAc), 25° C.; read-out: Solubility

- compound: "Cc1ccncc1-c1ccc2nc(NC(=O)[C@@H]3C[C@@H]3F)sc2c1 [free base]"
  solubility: "< 5 mg/mL"

---

experiment: Solubility test of free base in solvents; format: physicochemical; details: organic solvent or mixture, thermodynamic from solid; 2-Propanol (IPA), 50° C.; read-out: Solubility
property_name: solubility

- compound: "Cc1ccncc1-c1ccc2nc(NC(=O)[C@@H]3C[C@@H]3F)sc2c1 [free base]"
  reported: "< 5000 µg/mL"

---

assay: Solubility tests of mono- and di-hydrochloride in bio-relevant media by HPLC; format: physicochemical; conditions: 37 °C, pH 5.07, fessif, thermodynamic from solid

- molecule: "Cc1ccncc1-c1ccc2nc(NC(=O)[C@@H]3C[C@@H]3F)sc2c1.Cl [Mono-hydrochloride]"
  solubility at 17 h (µg/mL): 130

---

assay: Solubility test of free base in solvents; type: physicochemical; details: organic solvent or mixture, thermodynamic from solid; N,N-Dimethylformamide (DMF), 25° C.; read-out: Solubility

- compound: "Cc1ccncc1-c1ccc2nc(NC(=O)[C@@H]3C[C@@H]3F)sc2c1 [free base]"
  solubility: "67 to 100 mg/mL"

---

test: Solubility test of free base in solvents; type: physicochemical; conditions: organic solvent or mixture, thermodynamic from solid; Isopropyl acetate (IPAc), 25° C.; read-out: Solubility

- compound: "Cc1ccncc1-c1ccc2nc(NC(=O)[C@@H]3C[C@@H]3F)sc2c1 [free base]"
  solubility: "< 5000 µg/mL"

---

assay: Solubility test of free base in solvents; type: physicochemical; conditions: organic solvent or mixture, thermodynamic from solid; Acetonitrile (ACN), 50° C.; read-out: Solubility
property_name: solubility

- molecule: "Cc1ccncc1-c1ccc2nc(NC(=O)[C@@H]3C[C@@H]3F)sc2c1 [free base]"
  property_name: "solubility"
  reported: "< 5000 µg/mL"

---

Assay: Solubility test of free base in solvents
Assay type: physicochemical
Settings: organic solvent or mixture, thermodynamic from solid; Ethyl alcohol (EtOH), 50° C.; read-out: Solubility
Protocol: About 4 mg of (1S,2S)-2-fluoro-N-(6-(4-methylpyridin-3-yl)benzo[d]thiazol-2-yl)cyclopropane-1-carboxamide was weighed into a 2.0 mL glass vial and then selected solvents was added in the vial stepwise until all the solid was dissolved. The experiment was conducted by manual dilution combined with visual observation at 25° C. and 50° C. The total volume of solvent added was recorded.

- molecule: "Cc1ccncc1-c1ccc2nc(NC(=O)[C@@H]3C[C@@H]3F)sc2c1 [free base]"
  solubility: "< 5 mg/mL"

---

test: Solubility test of free base in bio-relevant media and buffers; assay type: physicochemical; settings: aqueous buffer, thermodynamic from solid; pH 4.0 buffer, initial pH 4.01, 37° C., 24 hrs
property_name: solubility at 24 h (µg/mL)

- compound: "Cc1ccncc1-c1ccc2nc(NC(=O)[C@@H]3C[C@@H]3F)sc2c1 [free base]"
  unit_text: "µg/mL"
  reported: 31

---

experiment: Solubility test of free base in solvents; format: physicochemical; details: organic solvent or mixture, thermodynamic from solid; Acetonitrile (ACN), 25° C.; read-out: Solubility
property_name: solubility

- molecule: "Cc1ccncc1-c1ccc2nc(NC(=O)[C@@H]3C[C@@H]3F)sc2c1 [free base]"
  reported: "< 5000 µg/mL"

---

assay: Solubility test of free base in solvents; type: physicochemical; settings: organic solvent or mixture, thermodynamic from solid; 1,4-dioxane, 50° C.; read-out: Solubility

- compound: "Cc1ccncc1-c1ccc2nc(NC(=O)[C@@H]3C[C@@H]3F)sc2c1 [free base]"
  solubility: "7000 to 10000 µg/mL"

---

assay: Solubility test of free base in bio-relevant media and buffers; type: physicochemical; settings: aqueous buffer, thermodynamic from solid; pH 6.0 buffer, initial pH 5.90, 37° C., 24 hrs

- molecule: "Cc1ccncc1-c1ccc2nc(NC(=O)[C@@H]3C[C@@H]3F)sc2c1 [free base]"
  unit_text: "µg/mL"
  solubility at 24 h: 2

---

experiment: Solubility test of free base in bio-relevant media and buffers; type: physicochemical; conditions: simulated gastric fluid, thermodynamic from solid; in SGF and pH 2.0 buffer, 37° C., called medium solubility

- compound: "Cc1ccncc1-c1ccc2nc(NC(=O)[C@@H]3C[C@@H]3F)sc2c1 [free base]"
  solubility at 24 h: "2000 to 2500 µg/mL"

---

Assay: Solubility test of free base in solvents
Assay type: physicochemical
Conditions: organic solvent or mixture, thermodynamic from solid; Methanol (MeOH), 25° C.; read-out: Solubility
Description: About 4 mg of (1S,2S)-2-fluoro-N-(6-(4-methylpyridin-3-yl)benzo[d]thiazol-2-yl)cyclopropane-1-carboxamide was weighed into a 2.0 mL glass vial and then selected solvents was added in the vial stepwise until all the solid was dissolved. The experiment was conducted by manual dilution combined with visual observation at 25° C. and 50° C. The total volume of solvent added was recorded.

- compound: "Cc1ccncc1-c1ccc2nc(NC(=O)[C@@H]3C[C@@H]3F)sc2c1 [free base]"
  solubility: "< 5000 µg/mL"

---

test: Solubility test of free base in solvents; format: physicochemical; conditions: organic solvent or mixture, thermodynamic from solid; Ethyl alcohol (EtOH), 25° C.; read-out: Solubility

- compound: "Cc1ccncc1-c1ccc2nc(NC(=O)[C@@H]3C[C@@H]3F)sc2c1 [free base]"
  solubility: "< 5000 µg/mL"
